Target: hMOR (Homo sapiens, UniProt P35372)
Test: Receptor binding with [3H]diprenorphine at hMOR
Settings: PZM analogs; (n) = number of independent experiments; read-out: binding affinity Ki hMOR
For each record, check the reported Ki: if it is below 400 nM write fulfilled, else write not fulfilled.

Compound	Group Label
C[C@H](NC(=O)NC[C@H](Cc1ccc(O)cc1)N(C)C)c1ccccc1 (single isomer, unassigned)	fulfilled
Cc1cc(O)cc(C)c1C[C@@H](CNC(=O)N[C@@H](C)Cc1ccsc1)N(C)C [drawing 538]	fulfilled
CN(C)C(CNC(=O)NCCc1ccccc1F)Cc1ccc(O)cc1 (stereo not drawn)	fulfilled
CN(C[C@H](Cc1ccc(O)cc1)N(C)C)C(=O)NCCc1ccccc1 [drawing 503]	not fulfilled
CN(C)[C@H](CNC(=O)OCCc1ccsc1)Cc1ccc(O)cc1	fulfilled
C[C@@H](Cc1csc2ccccc12)NC(=O)NC[C@H](Cc1ccc(O)cc1)N(C)C [drawing 521]	fulfilled
Cc1cc(O)cc(C)c1C[C@@H](CNC(=O)N[C@H](C)Cc1ccsc1)N(C)C [drawing 537]	fulfilled
CN(C)[C@H](CNC(=O)NC(C)(C)Cc1ccccc1)Cc1ccccc1	not fulfilled

---

Target: μOR (Homo sapiens, UniProt P35372)
Sequence (P35372 whole entry): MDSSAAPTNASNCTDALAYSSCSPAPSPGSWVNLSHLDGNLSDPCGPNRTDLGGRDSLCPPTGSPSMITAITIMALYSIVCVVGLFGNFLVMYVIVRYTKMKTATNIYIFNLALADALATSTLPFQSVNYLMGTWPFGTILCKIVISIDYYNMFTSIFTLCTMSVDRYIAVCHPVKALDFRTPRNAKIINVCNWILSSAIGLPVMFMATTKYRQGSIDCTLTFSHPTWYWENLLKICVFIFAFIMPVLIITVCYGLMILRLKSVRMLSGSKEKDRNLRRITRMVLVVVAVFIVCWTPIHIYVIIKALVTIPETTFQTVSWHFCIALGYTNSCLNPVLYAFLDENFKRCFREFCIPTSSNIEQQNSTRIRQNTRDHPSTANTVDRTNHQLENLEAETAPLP
Assay: β-arrestin recruitment at μOR with GRK2 co-expression
Type: cell-based
Lab note: compare Arrestin + GRK2 Emax % DAMGO against 70 % DAMGO. Equal or greater, write true. Smaller, write false.

Molecule	Target Of Assay	Group Label
CN(C)[C@H](CNC(=S)NCCc1ccsc1)Cc1ccc(O)cc1	μOR (Homo sapiens, UniProt P35372)	false
CN(C)[C@H](CNC(=O)NCCc1ccccc1)Cc1ccc(O)cc1	μOR (Homo sapiens, UniProt P35372)	false
C[C@@H](Cc1ccsc1)NC(=O)NC[C@H](Cc1ccc(O)c(CO)c1)N(C)C	μOR (Homo sapiens, UniProt P35372)	false
C[C@@H](Cc1ccccc1)NC(=O)NC[C@H](Cc1ccc(O)cc1)N(C)C [DD 61L-B]	μOR (Homo sapiens, UniProt P35372)	true
CN(C)[C@H](CNC(=O)NCCc1ccsc1)Cc1ccc(O)cc1	μOR (Homo sapiens, UniProt P35372)	false

---

Recorded Ki, one value per entry.
Target: UniProtKB P35372
Experiment: Receptor binding with [3H]diprenorphine at hMOR
Conditions: ± SD (two experiments) or SEM; (n) experiments; read-out: hMOR [3H]dyprenorphine Ki

Molecule	Units Of Measure	Ki
C[C@H](NC(=O)NC[C@H](Cc1ccc(O)cc1)N(C)C)c1cccc2ccccc12 [DD 50LS]	µM	0.084
CN(C)[C@H](CNC(=O)NC(C)(C)Cc1ccsc1)Cc1cccc(O)c1 [DD 46L]	µM	0.025
C[C@H](NC(=O)NC[C@H](Cc1ccc(O)cc1)N(C)C)c1ccccc1 [DD 53LS]	µM	0.028
CN(C)[C@H](CNC(=O)NC(C)(C)Cc1ccccc1)Cc1ccc(O)cc1 [DD 33L]	µM	0.046
C[C@H](Cc1ccccc1)NC(=O)NC[C@H](Cc1ccc(O)cc1)N(C)C [DD 61L-A]	µM	0.081

---

Target: hKOR (Homo sapiens, UniProt P41145)
Sequence (P41145 whole entry): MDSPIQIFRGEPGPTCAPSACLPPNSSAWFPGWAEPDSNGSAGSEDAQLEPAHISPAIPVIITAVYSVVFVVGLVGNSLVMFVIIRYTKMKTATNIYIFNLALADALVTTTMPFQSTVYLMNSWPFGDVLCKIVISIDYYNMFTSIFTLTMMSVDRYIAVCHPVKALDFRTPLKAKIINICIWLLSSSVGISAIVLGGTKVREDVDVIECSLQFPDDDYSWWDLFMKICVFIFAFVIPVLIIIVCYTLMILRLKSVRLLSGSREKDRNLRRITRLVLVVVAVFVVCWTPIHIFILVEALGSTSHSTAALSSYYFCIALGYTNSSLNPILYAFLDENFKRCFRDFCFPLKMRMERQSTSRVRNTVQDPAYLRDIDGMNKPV
Assay: Receptor binding with [3H]diprenorphine at hKOR
Conditions: PZM analogs; (n) = number of independent experiments; read-out: binding affinity Ki hKOR
For each record, check the reported Ki: if it is below 200 nM write true (1), else write false (0).

Compound	Group Label
CN(C)[C@@H](CNC(=O)NC(C)(C)Cc1ccccc1)Cc1ccccc1	false (0)
COc1ccc(CCNC(=O)NCC(Cc2ccc(O)cc2)N(C)C)cc1 (stereo not shown)	false (0)
CN(C)[C@H](CNC(=O)NC(C)(C)Cc1ccccc1)Cc1ccccc1	false (0)
C[C@H](CN1C(=O)C=CC1=O)NC(=O)NC[C@H](Cc1ccc(O)cc1)N(C)C	false (0)
CN(C)[C@H](CNC(=O)NC(C)(C)Cc1ccccc1)Cc1ccc(O)cc1 [drawing 530]	true (1)
Cc1cc(O)cc(C)c1C[C@@H](CNC(=O)N[C@H](C)Cc1ccsc1)N(C)C [drawing 537]	true (1)
C[C@H](Cc1csc2ccccc12)NC(=O)NC[C@H](Cc1ccc(O)cc1)N(C)C	true (1)
CN(C)[C@H](CNC(=O)NCCc1ccccc1)Cc1ccc(O)cc1 [drawing 514]	true (1)
C[C@@H](Cc1ccsc1)NC(=O)NC[C@@H](Cc1ccccc1)N(C)C	false (0)
CN(C)[C@H](CNC(=O)NC(C)(C)Cc1ccsc1)Cc1ccccc1	false (0)
C[C@@H](Cc1ccsc1)NC(=O)NC[C@H](Cc1ccc(O)c(CO)c1)N(C)C [drawing 535]	true (1)
Cc1ccc([C@H](C)NC(=O)NC[C@H](Cc2ccc(O)cc2)N(C)C)cc1 [drawing 523]	true (1)
CN(C)C(CNC(=O)NCCc1ccc(F)cc1)Cc1ccc(O)cc1 (stereo not shown)	true (1)
